B1: library; a variant is named by its letters at N, in order (parent)
chain: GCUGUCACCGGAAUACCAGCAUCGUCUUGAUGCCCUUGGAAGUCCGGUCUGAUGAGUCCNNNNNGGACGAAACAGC

- Variants of: B1
- assay-remarks: FACS-Seq fitted mean relative fluorescence mCherry/BFP without ligand (log10 relative fluorescence); higher = higher reporter protein expression
- assay-context: HEK293T, ligand present: no
Decision: FACS-Seq fitted mean (log10) compared against 0.3; not below it gives label 1, below it gives label 0.

alteration	category-label
AGUGC	label 0
CGGAU	label 0
CCCAU	label 1

--- query ---
Assess whether reported FACS-Seq fitted mean (log10) for "UCGCA" sits at 0.3 or higher.
label 1

From: the supplement of paper PMC6757056
